Data provenance is patent US10517889B2.

# Test system: human SMAD7 mRNA
# protocol text: Dose-dependent inhibition of human SMAD7 mRNA expression in Hep3B cells (Example 3, Study 1 and 2)
# Assay type: cell-based
# test conditions: 5000.0 nM, electroporation, approximately 16 hours, Study 1
Strand notation (5' to 3'): a small letter for the sugar, then the base; units joined by * are phosphorothioate-linked, units joined directly phosphodiester-linked; [ ] holds rarer units or linkages, { } end groups; capitals alone tell only the bases. e = 2'-O-(2-methoxyethyl) (MOE); [5mC] = 5-methylcytosine; d = 2'-deoxy (DNA)
value kind: % inhibition of SMAD7 mRNA expression (%)
Express it in %; write the number only.

Use these answered entries as a reference point.
INSERT INTO results (substance, value_kind, endpoint_value) VALUES
  ('771778 (antisense eT*eG*eA*eG*eT*dA*dA*dA*d[5mC]*dA*dA*dT*dA*d[5mC]*d[5mC]*e[5mC]*eT*e[5mC]*eA*eG) [compound 771778]', '% inhibition of SMAD7 mRNA expression', 37),
  ('771610 (antisense eA*e[5mC]*e[5mC]*eT*eG*dA*dT*dG*dT*d[5mC]*dA*d[5mC]*d[5mC]*dA*dG*eG*eG*e[5mC]*eA*eG) [compound 771610]', '% inhibition of SMAD7 mRNA expression', 37),
  ('771403 (antisense eG*eA*eA*e[5mC]*eA*dT*dG*dA*d[5mC]*d[5mC]*dT*d[5mC]*d[5mC]*dG*d[5mC]*eA*e[5mC]*eA*e[5mC]*e[5mC]) [compound 771403]', '% inhibition of SMAD7 mRNA expression', 25),
  ('771742 (antisense eA*eG*eA*e[5mC]*eA*dG*dA*dT*d[5mC]*dT*d[5mC]*dT*dG*dA*dA*eG*eT*e[5mC]*eA*eG) [compound 771742]', '% inhibition of SMAD7 mRNA expression', 0);

(Q) Return % inhibition of SMAD7 mRNA expression measured with human SMAD7 mRNA given this substance: 771641 (antisense eA*eG*eT*eT*eA*dG*dG*dT*dG*dT*d[5mC]*dA*dG*d[5mC]*d[5mC]*eT*eA*eG*eG*eA) [compound 771641]
(A) 24
